- Target: T1, CD3 (antigen of the anti-CD3 antibody, coated in the ELISA of Examples 1-3) (Homo sapiens (Human), UniProt P07766 23-126)
- T1 construct: also called antibody antigen
- T1 sequence (P07766 23-126 limits assumed, form in doubt): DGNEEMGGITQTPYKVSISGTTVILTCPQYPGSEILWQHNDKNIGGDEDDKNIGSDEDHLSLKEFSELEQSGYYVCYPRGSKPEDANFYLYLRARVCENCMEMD
- Method: ELISA, coated antigen, anti-human IgG-HRP; reference wild-type antibody
Reported metric: Binding strength of mutants (EC50 mutant/EC50 wild-type)

{"Binder": "anti-CD3 antibody mutant VL-R56C (antibody, V domains shown, Cys point mutant of the humanized anti-CD3 antibody; also called VL-56) VH: EVQLVESGGGLVQPGGSLRLSCAASGFTFSTYAMNWVRQAPGKGLEWVGRIRSKYNNYATYYADSVKDRFTISRDDSKNSLYLQMNSLKTEDTAVYYCARHGNFGNSYVSWFAYWGQGTLVTVSS VL: QTVVTQEPSLTVSPGGTVTLTCRSSTGAVTTSNYANWVQQKPGQAPRGLIGGTNKCAPGVPARFSGSLLGDKAALTLLGAQPEDEAEYFCALWYSNLWVFGGGTKLTVL", "Value observed": "1.5 fold"}
{"Binder": "anti-CD3 antibody mutant VL-Y94C (antibody, V domains shown, Cys point mutant of the humanized anti-CD3 antibody; also called VL-94) VH: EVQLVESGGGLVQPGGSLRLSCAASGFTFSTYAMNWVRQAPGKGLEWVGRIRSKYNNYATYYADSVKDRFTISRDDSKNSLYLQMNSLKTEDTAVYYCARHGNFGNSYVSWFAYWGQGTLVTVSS VL: QTVVTQEPSLTVSPGGTVTLTCRSSTGAVTTSNYANWVQQKPGQAPRGLIGGTNKRAPGVPARFSGSLLGDKAALTLLGAQPEDEAEYFCALWCSNLWVFGGGTKLTVL", "Value observed": "1 fold"}
{"Binder": "anti-CD3 antibody mutant VL-Y34C (antibody, V domains shown, Cys point mutant of the humanized anti-CD3 antibody; also called VL-34) VH: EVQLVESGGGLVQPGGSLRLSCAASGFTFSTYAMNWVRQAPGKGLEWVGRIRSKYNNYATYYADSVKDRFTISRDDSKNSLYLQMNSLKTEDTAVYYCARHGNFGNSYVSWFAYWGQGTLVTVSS VL: QTVVTQEPSLTVSPGGTVTLTCRSSTGAVTTSNCANWVQQKPGQAPRGLIGGTNKRAPGVPARFSGSLLGDKAALTLLGAQPEDEAEYFCALWYSNLWVFGGGTKLTVL", "Value observed": "1.2 fold"}
